# Test system: PC-12
# assay.info: Toxicity in PC12 cells assessed by measuring DNA fragmentation upto 20 uM
# Type: cell-based, Homo sapiens
assay.metric: Activity

Sample answers from the record:
>>> recorded_value("COC(=O)CCCCCC[C@@H]1C(=O)C=C[C@H]1CCCCCCc1ccc(C)cc1")
"Non-toxic"
>>> recorded_value("CCCCCCC/C=C1/C(=O)C=C[C@@H]1CCCCCCC(=O)OC")
"Non-toxic"
>>> recorded_value("COC(=O)CCCCC/C=C1/C(=O)CC[C@H]1CCCCCCc1ccc(C)cc1")
"Non-toxic"
>>> recorded_value("COC(=O)CCCCC/C=C1\\CC=CC1=O")
"Non-toxic"
>>> recorded_value("COC(=O)CCCCCC[C@H]1C=CC(=O)/C1=C/CCCCOc1ccc(Br)cc1")
"Non-toxic"

API: the following record is the query input.
Param item = COC(=O)CCCCCC[C@H]1C=CC(=O)/C1=C/CCCCCc1ccc(C)cc1 ; retrieve measured Activity.
Non-toxic
